TESTED SYSTEM: HDAC3/NCor2 (Homo sapiens (Human), UniProt O15379)
Sequence (O15379 whole entry): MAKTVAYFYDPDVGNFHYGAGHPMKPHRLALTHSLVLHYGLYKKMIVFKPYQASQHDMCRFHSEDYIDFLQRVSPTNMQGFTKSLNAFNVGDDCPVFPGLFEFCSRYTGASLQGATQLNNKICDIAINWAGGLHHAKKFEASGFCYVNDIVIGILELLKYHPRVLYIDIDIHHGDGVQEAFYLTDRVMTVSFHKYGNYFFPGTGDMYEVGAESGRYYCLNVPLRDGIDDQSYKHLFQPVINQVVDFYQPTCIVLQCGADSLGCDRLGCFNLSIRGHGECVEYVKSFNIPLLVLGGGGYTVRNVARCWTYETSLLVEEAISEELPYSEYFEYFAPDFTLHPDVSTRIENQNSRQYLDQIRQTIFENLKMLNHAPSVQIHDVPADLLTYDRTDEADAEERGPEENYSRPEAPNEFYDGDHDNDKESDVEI
Sequence (Q9Y618 395-489 partner): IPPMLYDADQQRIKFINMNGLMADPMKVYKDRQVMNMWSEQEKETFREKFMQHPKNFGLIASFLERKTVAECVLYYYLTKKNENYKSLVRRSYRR
ASSAY NOTES: HDAC3 inhibition, Fluor de Lys fluorescent enzyme assay
EXPERIMENTAL PARAMETERS: 3 hours pre-incubation at room temp; 1.2 nM enzyme; 16 μM Fluor de Lys substrate; duplicate
// reported IC50 for each item listed

In the examples that follow, each entry is paired with its recorded IC50.
INPUT: Which IC50 value belongs to N=[S@](=O)(c1ccc(C(=O)Nc2cc(-c3ccc(F)s3)ccc2N)cc1)C1CC1 (single isomer, unassigned) ?
OUTPUT: 0.5 to 2 µM

INPUT: Which IC50 value belongs to CC1CCS(=O)(c2ccc(C(=O)Nc3cc(-c4ccc(F)cc4)ccc3N)cc2)=N1 (stereo not shown) ?
OUTPUT: > 2 µM

INPUT: Which IC50 value belongs to CCN=S(C)(=O)c1ccc2oc(C(=O)Nc3cc(-c4ccc(F)cc4)ccc3N)cc2c1 (stereo not shown) ?
OUTPUT: 0.5 to 2 µM

INPUT: Which IC50 value belongs to [2H]c1c([2H])c(-c2ccc(N)c(NC(=O)c3ccc(S(C)(=N)=O)cc3)c2)c([2H])c([2H])c1F (stereo not shown) ?
OUTPUT: 0.5 to 2 µM

INPUT: Which IC50 value belongs to N=S(=O)(c1ccc(C(=O)Nc2cc(-c3ccc(F)cc3)ccc2N)cc1)c1ccc(F)cn1 (stereo not shown) ?
OUTPUT: 0.5 to 2 µM

INPUT: Which IC50 value belongs to CS(=N)(=O)c1ccc(C(=O)Nc2cc(-c3ccc(C(F)(F)F)cc3)ccc2N)cc1 (stereo not shown) ?
OUTPUT: > 2 µM

Please look at the following compound next.
INPUT: Which IC50 value belongs to CC(O)c1ccc(-c2ccc(N)c(NC(=O)c3ccc(S(C)(=N)=O)cc3)c2)s1 (stereo not shown) ?
OUTPUT: > 2 µM
